System: T-47D breast
assay_overview: NCI-60 one-dose screen, 48 h (100 = growth as untreated, 0 = no growth, -100 = all killed)
stated_conditions: 10 µM
Description: Growth inhibition of the T-47D human tumor cell line is measured as a screen for anti-cancer activity. Cells are grown in 96 well plates and exposed to the test compound for 48 hours. Compounds are tested at a single concentration, which is 10^-5 M for most compounds. The reported endpoint is percent growth (GI% or GIPRCNT), where numbers from 0 - 100% represent growth inhibition, and numbers from -100% - 0 represent cell death. For example, a value of 40 represents 60% growth inhibition. […]
This is part of a sample that, as a whole, favours compounds with a hit. Of some 83,000 tested, about 20% had one in any assay.
readout_kind: growth (%)
// note: answer is a bare numeric in %

Qu. Complete the entry with growth for `COc1ccc(-c2nn(-c3cccc(NC(=O)Nc4ccccc4)c3)cc2-c2ccncc2)cc1Cl`
Ans. 30.9

Qu. Complete the entry with growth for `Cc1ccc(S(=O)(=O)OCCN(CCOS(=O)(=O)c2ccc(C)cc2)c2c[nH]c(=O)[nH]c2=O)cc1`
Ans. 100

Qu. Complete the entry with growth for COc1cccc(NC(=O)c2sc3nc4c(cc3c2N)C(O)CCC4)c1 (stereo unspecified)
Ans. 62.1

Qu. Complete the entry with growth for `COc1cc(-c2nnc(-c3c(-c4ccc(F)cc4)nc4ccccn34)o2)cc(OC)c1OC`
Ans. 53.1

Qu. Complete the entry with growth for CCCC(F)C(=O)O (stereo unspecified)
Ans. 97.7

Qu. Complete the entry with growth for CO/N=C(/C(=O)NC1C(=O)N2C(C(=O)O)=C(COC(N)=O)CSC12)c1ccco1 (stereo unspecified)
Ans. 101

Qu. Complete the entry with growth for CC(=O)N1N=C(c2ccc(Cl)cc2)CC1c1sc(Cl)nc1Cl (stereo unspecified)
Ans. 75.1

Qu. Complete the entry with growth for `N#Cc1ncc(Br)c(NC2CCCCCC2)n1`
Ans. 90.8

Qu. Complete the entry with growth for `N#Cc1ncc(-c2cc(F)c(F)c(F)c2)c(NC2CCCCCC2)n1`
Ans. 72.6

Qu. Complete the entry with growth for `O=C(CSSCC(=O)c1ccc(Cl)cc1)c1ccc(Cl)cc1`
Ans. 74.8

Qu. Complete the entry with growth for O=C1OCC2=C1C(c1ccc(Cl)c(Cl)c1)c1cc3c(cc1N2CCO)OCCO3 (stereo unspecified)
Ans. 62.2

Qu. Complete the entry with growth for `CCN(CC)CCSCCCNc1c2ccc(Cl)cc2nc2ccc(OC)cc12`
Ans. -32.8

Qu. Complete the entry with growth for `COc1cc2cc3c(nc2cc1OC)CCN3Cc1ccc(NC(=O)c2ccc(Cl)c(C(F)(F)F)c2)cc1`
Ans. 64.2

Qu. Complete the entry with growth for `CCN(CCCCCCN1CC(=O)N(CCCCCCN(CC)Cc2ccccc2OC)CC1=O)Cc1ccccc1OC`
Ans. 90.8

Qu. Complete the entry with growth for `c1ccc2c(c1)oc1c3c(ccc12)NCCC3`
Ans. 59.9

Qu. Complete the entry with growth for `O=C(Nc1ccncc1)C(=O)c1cn(S(=O)(=O)c2cccc3ccccc23)c2ccccc12`
Ans. 70.9

Qu. Complete the entry with growth for `CCN(CC)CCNc1ccc(CO)c2oc3cc(Cl)ccc3c(=O)c12`
Ans. 117

Qu. Complete the entry with growth for `COc1ccc(-c2nc3ccccn3c2-c2nnc(-c3cc(OC)c(OC)c(OC)c3)o2)cc1`
Ans. 48

Qu. Complete the entry with growth for `CNc1ccc(CSc2ccc(C)cc2)cc1`
Ans. 64.5

Qu. Complete the entry with growth for `CC/C(=C(/c1ccc(OCCN(C)C)cc1)c1ccc(OC(=O)CCCCC(=O)c2c(C)[nH]c(/C=C3\N=C(c4ccc[nH]4)C=C3OC)c2C)cc1)c1ccccc1`
Ans. 25.2

Qu. Complete the entry with growth for `COc1cc(Cl)cc(-c2nn(-c3cccc(NC(=O)Nc4ccc(Cl)c(Cl)c4)c3)cc2-c2ccncc2)c1`
Ans. 18.6

Qu. Complete the entry with growth for `COc1cc(/C=C/C(=O)c2ccc(Cl)cc2)ccc1OS(=O)(=O)c1ccc(C)cc1`
Ans. 76.8

Qu. Complete the entry with growth for `O=C(Nc1ccccc1)Nc1cccc(-n2cc(-c3ccncc3)c(-c3ccc(O)c(Cl)c3)n2)c1`
Ans. 44.6

Qu. Complete the entry with growth for `Cc1ccc(Nc2cc(C)nc(NCCCNc3ccnc4cc(Cl)ccc34)n2)cc1`
Ans. -73

Qu. Complete the entry with growth for `CCN(CC)CCN1CC(=O)Nc2cc(Cl)ccc21`
Ans. 107

Qu. Complete the entry with growth for `Cc1ccc(C)c(C(O)(c2cc(C)ccc2C)C2(O)CCCCC2)c1`
Ans. 72.5

Qu. Complete the entry with growth for `COc1cc2cc3c(nc2cc1OC)CCN3Cc1ccc(NC(=O)Nc2cc(C(F)(F)F)cc(C(F)(F)F)c2)cc1`
Ans. 71.5

Qu. Complete the entry with growth for `O=C(Nc1cccc(-n2cc(-c3ccncc3)c(-c3ccc(O)c(Cl)c3)n2)c1)Nc1ccc(Cl)c(Cl)c1`
Ans. -3.41

Qu. Complete the entry with growth for `Cc1cc2c(C)c3cc(C)c(N)cc3nc2cc1N`
Ans. -2.32

Qu. Complete the entry with growth for `COc1cc(-c2nc(-c3nnc(-c4ccc(F)c(Cl)c4)o3)c3ccccn23)cc(OC)c1OC`
Ans. 30.4

Qu. Complete the entry with growth for `O=C1/C(=C\c2ccc(Cl)cc2)CN(C(=S)Nc2ccccc2)C/C1=C\c1ccc(Cl)cc1`
Ans. -2.82

Qu. Complete the entry with growth for `CSc1nc(=O)n(Cc2ccc(Cl)cc2)c(=O)[nH]1`
Ans. 90.1

Qu. Complete the entry with growth for `C[C@]12CC[C@@H]3c4ccc(O)cc4C[C@@H](O)[C@H]3[C@@H]1CC[C@@H]2O`
Ans. 118

Qu. Complete the entry with growth for `COc1ccc2c(c1)sc1nc(-c3ccccc3)c(-c3cccnc3)n12`
Ans. 93.3

Qu. Complete the entry with growth for `CC(=O)c1cc(Br)ccc1O`
Ans. 114

Qu. Complete the entry with growth for `CC1=C(N2CCOCC2)C(N2CCOCC2)=C(C)C(=O)C1=O`
Ans. 95.1

Qu. Complete the entry with growth for `COc1ccc(-c2nc3sc(C4CC4)nn3c2/C=C2/C(=O)Nc3ccc(OC)cc32)cc1`
Ans. 68.7

Qu. Complete the entry with growth for `Cc1nc2c(c(=O)[nH]1)OCN(Cc1ccccc1)C2`
Ans. 97.8

Qu. Complete the entry with growth for `Cc1ccc(NC(=O)NC2CCCCC2)cc1`
Ans. 93.2

Qu. Complete the entry with growth for CCOC1(OCC)OC(c2ccccc2)=C(C#N)C(/C=C\c2ccccc2)C1(OCC)OCC (stereo unspecified)
Ans. 67.5

Qu. Complete the entry with growth for `Cc1nc2ccc(CN(C)c3ccc(C(=O)N[C@@H](CCC(=O)O)C(=O)O)s3)cc2c(=O)[nH]1`
Ans. 55.4

----------
For each of the compounds below, state its growth.
Test system: UACC-257 melanoma
assay_overview: NCI-60 one-dose screen, 48 h (100 = growth as untreated, 0 = no growth, -100 = all killed)
stated_conditions: 10 µM
This is part of a sample that, as a whole, favours compounds with a hit. Of some 83,000 tested, about 20% had one in any assay.
// note: answer is a bare numeric in %

Qu. Complete the entry with growth for `O=C(N/N=C/c1ccccc1O)C(O)(c1ccccc1)c1ccccc1`
Ans. 68.6

Qu. Complete the entry with growth for CCN1CCCC1CNC(=O)c1ncc(-c2ccc(C(F)(F)F)cc2)c(NC2CCCCCC2)n1 (stereo unspecified)
Ans. -46.2

Qu. Complete the entry with growth for `c1ccc(CSc2nnc3c4c5c(sc4nc(-c4cccnc4)n23)CCCCCC5)cc1`
Ans. 35

Qu. Complete the entry with growth for `CC(C)(C#N)Nc1ccccc1`
Ans. 98.5

Qu. Complete the entry with growth for `Cc1ccc(CC#N)cc1C`
Ans. 127

Qu. Complete the entry with growth for `c1ccc(CNc2ncnc3scc(-c4cccs4)c23)nc1`
Ans. 46.1

Qu. Complete the entry with growth for `CSc1nc(=O)n(Cc2ccc(F)cc2)c(=O)n1Cc1ccc(C)cc1`
Ans. 106

Qu. Complete the entry with growth for CCCC1(CC(=O)O)OCCc2c1[nH]c1ccccc21 (stereo unspecified)
Ans. 103

Qu. Complete the entry with growth for `S=c1[nH]ccn1-c1c(Cl)cccc1Cl`
Ans. -4.51

Qu. Complete the entry with growth for `O=c1c2ccccc2nc(SCCN2CCCCC2)n1CCc1ccccc1`
Ans. 95.9

Qu. Complete the entry with growth for `O=C(CCCCC[P+](c1ccccc1)(c1ccccc1)c1ccccc1)NC(COC(=O)C(Cl)Cl)(COC(=O)C(Cl)Cl)COC(=O)C(Cl)Cl`
Ans. 97.5

----------
System: NCI-H23 lung
assay_overview: NCI-60 one-dose screen, 48 h
stated_conditions: 10 µM
This is part of a sample that, as a whole, favours compounds with a hit. Of some 83,000 tested, about 20% had one in any assay. Calls of active or inactive are those of the source. The calls were made as follows: active = growth percent below 10; inactive = the rest.
In this exercise, the only acceptable responses are label 1 for active, label 0 for inactive

Qu. I would be grateful if you could indicate the recorded call for O=C(O)CC(Cl)C(Cl)CC(=O)O (stereo unspecified) .
Ans. label 0

Qu. I would be grateful if you could indicate the recorded call for `FC(F)(F)c1ccc2nc(-c3nc(-c4ccccc4)n4ccccc34)[nH]c2c1` .
Ans. label 0

Qu. I would be grateful if you could indicate the recorded call for `CCOC(=O)C(=Cc1ccc(Br)cc1)C(=O)OCC` .
Ans. label 0

Qu. I would be grateful if you could indicate the recorded call for `O=c1[nH]c(-c2ccc(Cl)cc2)nc2sc3c(c12)CCCC3` .
Ans. label 0

Qu. I would be grateful if you could indicate the recorded call for `COc1ccc(-c2nn(-c3cccc(NC(=O)c4ccc5c(c4)OCCO5)c3)cc2-c2ccncc2)cc1Cl` .
Ans. label 0

Qu. I would be grateful if you could indicate the recorded call for `COc1cc(Cl)cc(-c2nn(-c3cccc(NC(=O)Nc4ccc(Cl)c(Cl)c4)c3)cc2-c2ccncc2)c1` .
Ans. label 1

Qu. I would be grateful if you could indicate the recorded call for `C#Cc1ccc(-n2c(/C=C/c3ccc(C(F)(F)F)cc3)nc3ncccc3c2=O)cc1` .
Ans. label 0

Qu. I would be grateful if you could indicate the recorded call for N#CC1=C(Nc2ccccc2Cl)SC(c2ccccc2O)NC1=O (stereo unspecified) .
Ans. label 0

Qu. I would be grateful if you could indicate the recorded call for c1ccc(C(NC2CC3CCC2C3)c2ccccc2)cc1 (stereo unspecified) .
Ans. label 0

Qu. I would be grateful if you could indicate the recorded call for `COc1ccc(Nc2ccnc(NCCNc3ccnc4cc(Cl)ccc34)n2)cc1` .
Ans. label 0

Qu. I would be grateful if you could indicate the recorded call for `N=C(N)c1ccc(-c2ccc(-c3ccccc3)o2)nc1` .
Ans. label 0

Qu. I would be grateful if you could indicate the recorded call for `O=C1/C(=C/c2ccc([N+](=O)[O-])s2)Oc2ccccc21` .
Ans. label 1

Qu. I would be grateful if you could indicate the recorded call for `COc1ccc(Nc2nc3ccc(NC(=O)NC4CCCCC4)cc3[nH]c2=O)cc1` .
Ans. label 0

Qu. I would be grateful if you could indicate the recorded call for `COC(=O)c1c(-c2ccccc2)csc1NC(=O)c1c(-c2ccccc2)noc1C` .
Ans. label 0

Qu. I would be grateful if you could indicate the recorded call for `O=C(CCCCCCC(=O)Nc1cccnc1)NO` .
Ans. label 0

Qu. I would be grateful if you could indicate the recorded call for `O=C(/C(=C/c1ccccc1)CN1CCCCC1)c1ccccc1` .
Ans. label 1

Qu. I would be grateful if you could indicate the recorded call for `CC(=O)O[C@]1(C)CC[C@H]2[C@H](CNCCc3ccc(Cl)cc3)C(=O)O[C@@H]2C2=C(C)C(=O)C[C@H]21` .
Ans. label 0

Qu. I would be grateful if you could indicate the recorded call for `O=C1/C(=C/c2ccc(Cl)cc2)SC(=Nc2ccc(Cl)cc2)N1Cc1nc2ccccc2[nH]1` .
Ans. label 0

Qu. I would be grateful if you could indicate the recorded call for `COc1ccc(-c2nc3sc(C4CC4)nn3c2/C=C2/C(=O)Nc3ccc(OC)cc32)cc1` .
Ans. label 0

Qu. I would be grateful if you could indicate the recorded call for COc1cc(NC(=O)c2sc3nc4c(cc3c2N)C(O)CCC4)cc(OC)c1 (stereo unspecified) .
Ans. label 0

Qu. I would be grateful if you could indicate the recorded call for `O=C(Nc1cccc(-n2cc(-c3ccncc3)c(-c3ccc(O)c(Cl)c3)n2)c1)c1cc(C(F)(F)F)cc(C(F)(F)F)c1` .
Ans. label 0
